Below, each entry is listed with its recorded half-life.
ASSAY EXPLANATION: Metabolic stability in human liver S9 fraction assessed as half life
Format: ADME, subcellular

INSERT INTO measurements (test_smiles, observed_property, measured_value) VALUES
  ('CC(C)Oc1ccc(-c2ncc(CNc3ccnc(C#N)c3)s2)cc1Cl', 'half-life', '> 1 h'),
  ('CC(C)Oc1ccc(-c2ncc(CNc3ccnc(C(F)(F)F)c3)s2)cc1Cl', 'half-life', '> 1 h');

Now take the following compound into account.
QUERY: half-life for FC(F)(F)c1cc(NCc2cn(-c3ccc(Oc4ccccc4)cc3)nn2)ccn1 ?
RESULT: > 1 h
